assay: Solubility in methylethylketone (MEK) measured at 20° C.; type: physicochemical
ENDPOINT: S (MEK) (wt %)

{"COMPOUND": "CCC(CC)Oc1c(OC)cc(/C=C/c2ccc(/C=C/c3cc(OC)c(OC(CC)CC)c(OC)c3)cc2)cc1OC", "MEASURED_NUMBER": 9.64}
{"COMPOUND": "CCCOc1c(OC)cc(/C=C/c2ccc(/C=C/c3cc(OC)c(OCCC)c(OC)c3)cc2)cc1OC", "MEASURED_NUMBER": 4.75}
{"COMPOUND": "CCCCC(CC)COc1c(OC)cc(/C=C/c2ccc(/C=C/c3cc(OC)c(OCC(CC)CCCC)c(OC)c3)cc2)cc1OC (stereo not drawn)", "MEASURED_NUMBER": 23.21}
{"COMPOUND": "COc1cc(/C=C/c2ccc(/C=C/c3cc(OC)c(OC(C)C)c(OC)c3)cc2)cc(OC)c1OC(C)C", "MEASURED_NUMBER": 0.45}
{"COMPOUND": "CCC(C)Oc1c(OC)cc(/C=C/c2ccc(/C=C/c3cc(OC)c(OC(C)CC)c(OC)c3)cc2)cc1OC (stereo not drawn)", "MEASURED_NUMBER": 8.71}
{"COMPOUND": "COc1cc(/C=C/c2ccc(/C=C/c3cc(OC)c(OC)c(OC)c3)cc2)cc(OC)c1OC", "MEASURED_NUMBER": 0.89}
